B1: HDV Ribozyme (parent)
chain: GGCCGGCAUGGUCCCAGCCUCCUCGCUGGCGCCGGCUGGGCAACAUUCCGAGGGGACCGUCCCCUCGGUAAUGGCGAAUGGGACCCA

variants of: B1; experiment: self-cleavage, relative activity (ratio to wild type); higher = more cleavage; co-transcriptional
Entries and their self-cleavage
Lab note: jot the number down without any unit.

Q: Please look up its self-cleavage: C41A A56G
A: 1.15

Q: Queued: G25A C86G
A: 0.122

Q: Same lookup for G6U C62G , please.
A: 0.332

Q: Next variant up: G67A A87U
A: 1.06

Q: Another: C14U G73U
A: 0.309

Q: Next record, please: U12C G25U
A: 0.0369

Q: // same read-out, input: A16U A42C
A: 0.262

Q: Check A45U G68C too.
A: 0.706

Q: Do the same for C21A U47C please
A: 0

Q: Now the same for C41A G67U
A: 0.739

Q: Moving on to G2U U72G
A: 0

Q: Can you handle A45U C61A next?
A: 0.928

Q: Now try G10C G11C .
A: 0.462

Q: Would you kindly repeat that for C24U G31U ?
A: 0.0228

From: the RNAGym collection of RNA variant scans (doi:10.7554/elife.80360)
